Taken from the DeepSol protein solubility set.

- testMethodNotes: soluble on expression in E. coli; label from the status in PepcDB or PDB records

entrySequence: MNTQKRQQIRTEIRKIRANLTALQQHQAEQSVTQHALNLIEQRQAKNIALYFSFDGEISTKALIQSLWMQNKNVYLPVLHPFTKHYLLFLRYLPDTPMKQNQFGIWEPKLNVQNVLPLNELDILFTPLVAFDKKGNRLGMGGGFYDRTLQNWQNKSFIPVGLAYQCQQVENLPTEHWDVPLFDILVGLEHHHHHH
soluble on expression in E. coli: not soluble
--
entrySequence: MKNNVKNWTTKEVKQSLDKFNNILIKNTFLLQYLKKEFSASSAYCLSMLPEEEDIYEILVNGNIIIDLEFNKHTNETVVINVTDVDEYLKTLTNESGRVFFTLAKEIGKQKNI
soluble on expression in E. coli: not soluble
